# assay: qHTS assay to identify small molecule agonists of the NFkB signaling pathway - cell viability counter screen (AID 1159515); further: on the % scale 0 is the no-effect control and ±100 the full control effect; nearly all actives have a fitted effect of over 55% in size
# study_conditions: NFkB-bla ME-180 viability, CellTiter-Glo luminescence, 5 h; series mostly up to 61 µM
Records with an inconclusive call do not appear. Calls of active or inactive are those of the source. The call rests on the fitted dose curve.
readout_kind: outcome

Below, each entry is followed by its recorded outcome result.
- CN(N=O)c1ccc([N+](=O)[O-])cc1: inactive
- O=C(O)CC(Cl)C(=O)O (stereo unspecified): inactive
- O=S1OC[C@@H]2[C@H](CO1)[C@]1(Cl)C(Cl)=C(Cl)[C@@]2(Cl)C1(Cl)Cl (stereo partly specified): inactive
- OC(c1ccc(Cl)cc1)(c1ccc(Cl)cc1)c1cccnc1: inactive
- C=CCOC(C)=O: inactive
- O=C(NC(=O)c1c(F)cccc1F)Nc1cc(Cl)c(Oc2ncc(C(F)(F)F)cc2Cl)c(Cl)c1: inactive

Sample `C[C@]12CC[C@H]3[C@@H](CCC4=CC(=O)CC[C@@H]43)[C@@H]1CC[C@@H]2OC(=O)CCC1CCCCC1` ; outcome observed: inactive

Sample `CO/C=C(/C(=O)OC)c1ccccc1COc1cccc(C(F)(F)F)n1` ; outcome observed: inactive

Sample `CCOP(=O)(OCC)O/C(=C/Cl)c1ccc(Cl)cc1Cl` ; outcome observed: inactive

Sample `COc1nn(C(=O)NS(=O)(=O)c2ccccc2OC(F)(F)F)c(=O)n1C` ; outcome observed: inactive

---

# assay: qHTS assay to identify small molecule agonists of the estrogen related receptor (ERR) signaling pathway from Tox21 library (AID 1224849); further: on the % scale 0 is the no-effect control and ±100 the full control effect; nearly all actives have a fitted effect of over 15% in size
# study_conditions: ERR reporter cell line, ONE-Glo luciferase, 18 h; at 92.4 µM (top of the series) unless noted
# Experimental: National Center for Advancing Translational Sciences [NCATS] NIH Chemical Genomics Center [NCGC] U.S. Environmental Protection Agency [EPA] National Institutes of Environmental Health Sciences [NIEHS] National Toxicology Program [NTP] […] The ERR cells were dispensed at 2,000 cells/5 ul/well in 1536-well white plates using a Multidrop dispenser. […] After 30-minute incubation at room temperature, the luminescence intensity in the plates was measured using a ViewLux plate reader.
Active and inactive are the calls of the source. Calls follow the shape of the full dose curve.
Respond using exactly one of the listed classes: active, inactive

State the result this test recorded for `C=CCN1CC[C@]23c4c5ccc(O)c4O[C@H]2C(=O)CC[C@@]3(O)[C@H]1C5` .
inactive

State the result this test recorded for `CC(C)N(C(=O)COc1nnc(C(F)(F)F)s1)c1ccc(F)cc1` .
inactive

State the result this test recorded for `N#Cc1cc(I)c(O)c(I)c1` .
inactive

State the result this test recorded for CCC(Cl)CCl (stereo not drawn) .
inactive

State the result this test recorded for `C=CC(=O)NCNC(=O)C=C` .
active

State the result this test recorded for `C=CC[C@]1(O)CC[C@H]2[C@@H]3CCC4=CC(=O)CCC4=C3C=C[C@@]21C` .
inactive

State the result this test recorded for `C[N+](C)(C)CCCl` .
inactive

State the result this test recorded for CC(C)N(CCC(C(N)=O)(c1ccccc1)c1ccccn1)C(C)C (stereo not drawn) .
inactive

State the result this test recorded for `C/C(=C\c1ccccc1)[N+](=O)[O-]` .
inactive

State the result this test recorded for CCCCC(O)(Cn1cncn1)c1ccc(Cl)cc1Cl (stereo not drawn) .
inactive

State the result this test recorded for `C=C(C#N)CCC#N` .
inactive

State the result this test recorded for COC(=O)C(C)N(C(=O)Cc1ccccc1)c1c(C)cccc1C (stereo not drawn) .
inactive

State the result this test recorded for CCCC(Cn1cncn1)c1ccc(Cl)cc1Cl (stereo not drawn) .
inactive

State the result this test recorded for `CC(C)(OO)c1ccccc1` .
inactive

State the result this test recorded for `CC(C)(Cl)[N+](=O)[O-]` .
inactive

State the result this test recorded for `COC1=CC(=O)O[C@@H](CCc2ccccc2)C1` .
inactive

State the result this test recorded for `COCCOCCO` .
active

State the result this test recorded for O=C(NC(=O)c1c(F)cccc1F)Nc1ccc(OC(F)(F)C(F)OC(F)(F)F)c(Cl)c1 (stereo not drawn) .
inactive

State the result this test recorded for CC(Cl)C(C)Cl (stereo not drawn) .
inactive

State the result this test recorded for `NC(=O)CI` .
inactive

State the result this test recorded for Clc1ccc(C(OCCN2CCCCC2)c2ccccc2)cc1 (stereo not drawn) .
inactive

State the result this test recorded for `Clc1cccc(SC2CCNCC2)n1` .
inactive

State the result this test recorded for `CCOC(=O)COc1cc(-c2nn(C)c(OC(F)F)c2Cl)c(F)cc1Cl` .
inactive

State the result this test recorded for `Cl/C=C\C[N+]12CN3CN(CN(C3)C1)C2` .
inactive

State the result this test recorded for `CC(Cl)Cl` .
inactive

State the result this test recorded for COc1cc(CC(C)N)cc2c1OCO2 (stereo not drawn) .
inactive

State the result this test recorded for `CO/C=C(/C(=O)OC)c1ccccc1COc1cccc(C(F)(F)F)n1` .
inactive

State the result this test recorded for `C[C@@H]1CC[C@H]2[C@@H](C)C(=O)O[C@@H]3O[C@@]4(C)CC[C@@H]1[C@]32OO4` .
inactive

---

# assay: qHTS assay to identify small molecule antagonists of the estrogen related receptor signaling pathway with the pleiotropic PPARgamma coactivator (PGC) from Tox21 10K library (AID 1224841); further: actives are mostly falling curves and most rising ones were filed inactive; nearly all actives have a fitted effect of over 50% in size
# study_conditions: PGC/ERR reporter cell line, ONE-Glo luciferase, 18 h; series mostly up to 92.4 µM
# Text: U.S. Tox21 Program National Center for Advancing Translational Sciences [NCATS] NIH Chemical Genomics Center [NCGC] U.S. Environmental Protection Agency [EPA] National Institutes of Environmental Health Sciences [NIEHS] National Toxicology Program [NTP] U.S. Food and Drug Administration [FDA] Tox21 Assay Overview: Estrogen related receptors (ERRs), the first orphan nuclear receptors discovered, play an important role in the control of cellular energy metabolism. […]
Inconclusive results are not listed. The source made the active and inactive calls. The rule behind the calls is not given here.
Respond using exactly one of the listed classes: active, inactive

State the result this test recorded for CC1(C)CCC(Cc2ccc(Cl)cc2)C1(O)Cn1cncn1 (stereo not drawn) .
active

State the result this test recorded for `C[N+](C)(C)CCCl` .
inactive

State the result this test recorded for `CC(C)=CCOc1c2occc2cc2ccc(=O)oc12` .
inactive

State the result this test recorded for `CCOC(=O)COc1cc(-c2nn(C)c(OC(F)F)c2Cl)c(F)cc1Cl` .
inactive

State the result this test recorded for `C=CC(=O)OCCCCO` .
inactive

State the result this test recorded for `CCc1ccc(C(=O)NN(C(=O)c2cc(C)cc(C)c2)C(C)(C)C)cc1` .
active

State the result this test recorded for C=CC(=O)OCC(C)O (stereo not drawn) .
inactive

State the result this test recorded for `O=C(O)C(F)(F)C(F)(F)C(F)(F)C(F)(F)C(F)(F)C(F)(F)C(F)(F)C(F)(F)C(F)(F)C(F)(F)F` .
inactive

---

# target_or_system: Estrogen receptor beta (Homo sapiens)
# assay: qHTS assay to identify small molecule antagonists of the estrogen receptor beta (ER-beta) signaling pathway (AID 1259378)
# study_conditions: ER-beta-UAS-bla HEK293T, beta-lactamase FRET ratio, 16 h; series mostly up to 92.4 µM
Results filed as inconclusive are left out. Activity calls are given as the source filed them. Calls follow the shape of the dose curve; as a rule, active = well fitted inhibition curve with a large enough effect in the signal ratio in the repeat runs (not every such curve was filed as active); inconclusive = weak or mixed curves, or effect the other way; inactive = no such curve, though single readings can be large or run the other way; the % refers to the signal ratio.
Respond using exactly one of the listed classes: label 1 (active), label 0 (inactive)

State the result this test recorded for CCC(COC(=O)c1cc(OC)c(OC)c(OC)c1)(c1ccccc1)N(C)C (stereo unspecified) .
label 0

State the result this test recorded for `Cc1ccc2ccccc2c1` .
label 0

State the result this test recorded for COC(=O)C(Br)CBr (stereo unspecified) .
label 0

State the result this test recorded for `S=C=NCc1ccccc1` .
label 1

State the result this test recorded for `Cl/C=C\C[N+]12CN3CN(CN(C3)C1)C2` .
label 0

State the result this test recorded for `C[C@@H]1CC[C@H]2[C@@H](C)C(=O)O[C@@H]3O[C@@]4(C)CC[C@@H]1[C@]32OO4` .
label 0

State the result this test recorded for `[O-][Cl+]O` .
label 0

State the result this test recorded for `CC(C)(CCl)C(=O)Cl` .
label 0

State the result this test recorded for `C[N+](C)(C)CCCl` .
label 0

State the result this test recorded for `COc1cc(Cl)c(OC)cc1Cl` .
label 0

State the result this test recorded for `CCOP(=O)(OCC)SCCSCC` .
label 0

State the result this test recorded for `Nc1nc(N)nc(N)n1` .
label 0

State the result this test recorded for `CC(=O)CCC(C)=O` .
label 0

State the result this test recorded for `NC(=O)C(Cl)(Cl)Cl` .
label 0

State the result this test recorded for O=C1C(Cl)C(CCl)CN1c1cccc(C(F)(F)F)c1 (stereo unspecified) .
label 0

State the result this test recorded for `O=[Se]=O` .
label 0

---

# target_or_system: Cytochrome P450 2D6 (Homo sapiens)
# assay: Cytochrome P450 Family 2 Subfamily D Member 6 (CYP2D6) small molecule antagonists: luciferase reporter qHTS assay (AID 1671196); further: nearly all actives have a fitted effect of over 50% in size
# study_conditions: P450-Glo CYP2D6 enzyme assay, luciferin luminescence, 1 h; series mostly up to 115 µM
Records with an inconclusive call do not appear. Calls of active or inactive are those of the source. Calls come from the whole dose curve; as a rule, active = well fitted inhibition curve with a large enough effect in the repeat runs; inconclusive = weak or mixed curves; inactive = no such curve, though single readings can be large or run the other way.
Respond using exactly one of the listed classes: active, inactive

State the result this test recorded for `COc1ccc(-c2ccccc2)cc1NNC(=O)OC(C)C` .
active

State the result this test recorded for Cn1cc[n+](C)c1 (tested in a mixture with another compound) .
inactive

State the result this test recorded for CC(O)(CS(=O)(=O)c1ccc(F)cc1)C(=O)Nc1ccc(C#N)c(C(F)(F)F)c1 (centres undefined) .
inactive

State the result this test recorded for `O=C(O)c1ccccc1C(=O)Nc1cccc2ccccc12` .
active

State the result this test recorded for `CCCN(CC1CC1)c1c([N+](=O)[O-])cc(C(F)(F)F)cc1[N+](=O)[O-]` .
inactive

State the result this test recorded for CN1[C@@H]2CC[C@H]1CC(OC(=O)c1cc(Cl)cc(Cl)c1)C2 (some centres undefined) .
active

State the result this test recorded for `Sc1ccccc1Cl` .
inactive

State the result this test recorded for `CCCC(=O)Cl` .
inactive

State the result this test recorded for Cc1c(F)c(F)c(COC(=O)C2C(/C=C(\Cl)C(F)(F)F)C2(C)C)c(F)c1F (centres undefined) .
inactive

State the result this test recorded for `c1ccoc1` .
inactive

State the result this test recorded for `CC(=O)CCC(C)=O` .
inactive

State the result this test recorded for `IC(I)=C(I)I` .
inactive

State the result this test recorded for `S=C=NCc1ccccc1` .
active

State the result this test recorded for `BrCCCCBr` .
inactive
